Reference source for all entries: patent US20260083851A1

measuredOn: IgG
measurementProtocol: IgG SPR binding
details: second table, read-out: IgG KD
pKd: −log10 of the molar value.

[
  {
    "compound": "CC(C)CC1NC(=O)C(Cc2cnc[nH]2)NC(=O)C(Cc2c[nH]c3ccccc23)NC(=O)C(C)NC(=O)C2CSSCC(NC(=O)C(Cc3c[nH]c4cc(Cl)ccc34)NC(=O)C(C(C)C)NC(=O)C(CC(C)C)NC(=O)C(CCC(=O)O)NC(=O)CNC1=O)C(=O)NC(C(C)O)C(=O)N1CCCC1C(=O)N1CC(N)CC1C(=O)NC(CC(=O)O)C(=O)N2 (stereo not drawn)",
    "measuredOn": "IgG",
    "pKd": "> 7.00"
  },
  {
    "compound": "CC(C)C[C@@H]1NC(=O)[C@H](Cc2cnc[nH]2)NC(=O)[C@H](Cc2c[nH]c3ccccc23)NC(=O)[C@H](C)NC(=O)[C@@H]2CC/C=C/C[C@H](NC(=O)[C@H](Cc3c[nH]c4ccccc34)NC(=O)[C@H](C(C)C)NC(=O)[C@H](CC(C)C)NC(=O)[C@H](CCC(=O)O)NC(=O)CNC1=O)C(=O)N[C@@H]([C@@H](C)O)C(=O)N1CCC[C@@H]1C(=O)N1CCC[C@H]1C(=O)N[C@@H](CC(=O)O)C(=O)N2",
    "measuredOn": "IgG",
    "pKd": "> 7.00"
  },
  {
    "compound": "CC(C)CC1NC(=O)C(Cc2cnc[nH]2)NC(=O)C(Cc2c[nH]c3ccccc23)NC(=O)C(C)NC(=O)C2CSSCC(NC(=O)C(Cc3c[nH]c4ccccc34)NC(=O)C(C(C)C)NC(=O)C(CC(C)C)NC(=O)C(CCC(=O)O)NC(=O)CNC1=O)C(=O)NC(C(C)O)C(=O)N1CCCC1C(=O)N1CC(NC(=O)CNC(COCCC(=O)NCCOCCOCCOCCOCC3OCC(Nc4cncc(C(F)(F)F)n4)C(O)C3O)COCCC(=O)NCCOCCOCCOCCOCC3OCC(Nc4cncc(C(F)(F)F)n4)C(O)C3O)CC1C(=O)NC(CC(=O)O)C(=O)N2 (stereo not drawn)",
    "measuredOn": "IgG",
    "pKd": "> 7.00"
  }
]
